Test system: FXR:RXRa (NR concentration 270 nM, RXRa partner concentration 90 nM)
experimentNotes: PBM binding z-score (relative to random genomic background probes); higher = stronger binding; sequences stand for … in GC…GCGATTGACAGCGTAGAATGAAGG
readoutLabel: PBM binding z-score
# answer = number (no unit)

Observe how each entry below is paired with its result.
- AGAATGAGGTTATACATAGATCAGGGAAGAAAGT: 1.88
- ATATGTAGGTTAGCTGGGGTTATTCAGACTAGGC: 1.74
- CGAACGAGGGCATGAGTTGATGGCAAATGCCGAT: 0.483
- TCTGCTAGGTCAACGATGGTCAGGTAATCTGCTA: 3.43
- ACTAGTTGGTCAGCTGAGGTCACTCACAATTCGG: 2.19
- TTACCAAGCTGAAGGTCGTTGATCCCTCTGTAGA: 1.61
- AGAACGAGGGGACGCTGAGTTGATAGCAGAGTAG: -0.308
- TCTAGCAGGCCAGAGGGTGACTCAAGAGGTACGG: -0.401
- CCTACTGGGCCATCAGGTCGTTGATATCAACGTT: -0.00658
- AGAATAAGGTTATTAAGATCAGGGAATTGCGGTC: 1.43

Report PBM binding z-score, nothing else, for this sequence: "CTCGAAAGGTCGTGCTCAGGGGAGTATACCAAAC" 4.81

Report PBM binding z-score, nothing else, for this sequence: "CAAACTAGGTCAAGAGGTCAAAGACCGCTTCCCG" 7

----------
Test system: PXR homodimer (NR concentration 270 nM)
experimentNotes: PBM binding z-score (relative to random genomic background probes); higher = stronger binding; sequences stand for … in GC…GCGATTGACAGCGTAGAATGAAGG
readoutLabel: PBM binding z-score
# answer = number (no unit)

• TCTCCGAGGACACGAAAGGTCAGAGCTCGACATC = 0.558

Report PBM binding z-score, nothing else, for this sequence: "CCTAGTTGGACAAGGTCACACACGCTATAGGTAC" 1.97

Report PBM binding z-score, nothing else, for this sequence: "AATACAGGGTCATCGTAAGCCAGAGTACGCACAG" 1

Report PBM binding z-score, nothing else, for this sequence: "TCCTGTAGATCAAGCAGGTTAAGAAAGCCTGAGT" 0.0191

Report PBM binding z-score, nothing else, for this sequence: "CTACCAAGGTGAACAGGGTCGTTGATTACTATTC" 0.796

Report PBM binding z-score, nothing else, for this sequence: "TAGCCTAGGTCATTCGGGCCAGTATAGTGTCGGC" 0.189

----------
System: RARb homodimer (NR concentration 270 nM)
experimentNotes: PBM binding z-score (relative to random genomic background probes); higher = stronger binding; sequences stand for … in GC…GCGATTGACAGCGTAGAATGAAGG
Kind request: treat 1 as inclusive, so PBM binding z-score at 1 or higher is Criterion met, anything lower is Criterion not met.

Would you please look over these solved cases?
* TCATATAGGTAATACAGGTGATAGTCGGCATCTA | Criterion not met
* TCTAGTTGGTCACGGAGGTCACTCACGACGGGTA | Criterion met
* CGTCCAAGATCAAGGTCAGTGAAAGAGACTCGAA | Criterion met
* AGAACGAGGGCACGCTGAGTTGATAGTAGAGTAG | Criterion met
* ATCTCTAGGAAACCAAGTTCAGTGAATGCCGAAC | Criterion met
* ACTTACGGGTCAACGAGGTTATAGCCCGCGTATA | Criterion met
* CTCGAAAGGTCGGTTGAGGCGAGTATACGGATAA | Criterion met
* CGTCCAAGGTCAATGCTTGGTCAGTGAAAGCATT | Criterion met
* CAGCCTAGGTTAGGGCCAGTATAGGAGGAACGTT | Criterion not met
* TCTTGTAGATCAGCAGGTTAACAAAGCTGGCCAA | Criterion not met

Does PBM binding z-score meet or surpass 1 for "GCAGACAGGTGAAACGCAGGTAACTGAGGGTGGC" ? Criterion not met

Does PBM binding z-score meet or surpass 1 for "CATCCAAGGTCATAGGAGGTCAGTGAAGACAGAT" ? Criterion met

Does PBM binding z-score meet or surpass 1 for "AGTCAAAGTTCAGGACGAGGAAACGTAAAGCACG" ? Criterion met

Does PBM binding z-score meet or surpass 1 for "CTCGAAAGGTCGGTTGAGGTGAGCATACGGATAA" ? Criterion met
